- experimental-system: LIMK2, P53671
- Sequence (P53671 143-248): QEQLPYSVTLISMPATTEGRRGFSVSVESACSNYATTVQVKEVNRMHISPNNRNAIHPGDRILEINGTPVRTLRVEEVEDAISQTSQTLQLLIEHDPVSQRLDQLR
- assay-overview: holdup assay
- Set-up: key: below the threshold = too weak to quantify, mostly under pKd 3.1 to 4
- condition-details: plain residues with an end cap or a label only (N-terminal biotin on a linker: ahx)
measured-endpoint: pKd

Worked examples follow.
query: Name the recorded pKd of the binder listed here: PKMKLNETSF [SHKBP1, Q8TBC3]
result: below the threshold

query: Name the recorded pKd of the binder listed here: KDECVIATEV [DLL1, O00548]
result: below the threshold

query: Name the recorded pKd of the binder listed here: YNSFLSVTTV [PDZRN3, Q9UPQ7]
result: below the threshold

query: Name the recorded pKd of the binder listed here: VNENQKEYFF [CNTNAP4, Q9C0A0]
result: below the threshold

For every item in the list below, what is its measured pKd?
1. SAPATLSSRA [PDLIM2, Q96JY6]
2. SKKNELFSNL [NHERF1, O14745]
3. ADENEQVSAV [RAPGEF6, Q8TEU7]

result:
["below the threshold", "below the threshold", "below the threshold"]
